MIC for assorted compounds
- System: S. aureus ATCC 29213
PROPERTY_MEASURED: MIC (µg/mL)

1) CO/N=C1\CN(c2c(F)cc3c(=O)c4c(O)c(C#N)sc4n(C4CC4)c3c2OC)CC1CN (stereo not drawn) | 0.13
2) COc1c(N2CCNCC2)c(F)cc2c(=O)c3c(O)c(-c4ccc(F)c(F)c4)sc3n(C3CC3)c12 | 8
3) COc1c(N2CCNCC2)c(F)cc2c(=O)c3c(O)c(C(=O)C(F)(F)F)sc3n(C3CC3)c12 | 64
4) COc1c(N2CCC(c3ncn[nH]3)CC2)c(F)cc2c(=O)c3c(n(C4CC4)c12)SC(C#N)C3=O (stereo not drawn) | 0.03
5) COc1c(N2CCCC(c3ncn[nH]3)C2)c(F)cc2c(=O)c3c(n(C4CC4)c12)SC(C#N)C3=O (stereo not drawn) | 0.13
6) COc1c(N2CCC(C(N)=O)CC2)c(F)cc2c(=O)c3c(n(C4CC4)c12)SC(C#N)C3=O (stereo not drawn) | 0.03

Values compiled from patent US8173636B2.
